# System: Rattus norvegicus
# test.protocol: Ulcerogenicity in Wistar albino rat assessed as damage in gastric mucosa at 50 mg/kg, po qd for 3 days measured 1 hr post last dose
# Type: toxicity, organism-based
# assay.conditions: in vivo
Listing of entries alongside the reported UI.
Lab note: write the figure by itself, no unit.

# item.smiles, UI
rows = [
    ("C/C(=N\\Nc1ccc(S(C)(=O)=O)cc1)c1sc(-c2ccccc2)nc1C", 3.87),
    ("C/C(=N\\Nc1ccc(S(N)(=O)=O)cc1)c1sc(-c2ccccc2)nc1C", 2.65),
    ("Cc1nc(-c2ccccc2)sc1-c1cc(C(F)(F)F)nn1-c1ccc(S(C)(=O)=O)cc1", 2.78),
    ("Cc1nc(-c2ccccc2)sc1-c1cc(C(F)(F)F)nn1-c1ccc(S(N)(=O)=O)cc1", 2.67),
]

Consider the additional compound presented here.
Query `COc1ccc([C@@H]2CC(c3sc(-c4ccccc4)nc3C)=NN2c2ccc(S(N)(=O)=O)cc2)cc1` on Rattus norvegicus; UI returned: 3.79

* * *

Listed next: entries and their corresponding inhibition in vivo at 50 mg/kg.
# System: Rattus norvegicus
# test.protocol: Anti-inflammatory activity in Wistar albino rat assessed as inhibition of carrageenan-induced paw edema at 50 mg/kg, po measured after 2 hrs relative to control
# Format: functional
Response body: numeric value in %, unit text excluded.

# item.smiles, inhibition in vivo at 50 mg/kg, %
data = [
    ("Cc1nc(-c2ccccc2)sc1-c1ccnn1-c1ccc(S(=O)(=O)/N=C/N(C)C)cc1", 53.2),
    ("COc1ccc([C@@H]2CC(c3sc(-c4ccccc4)nc3C)=NN2c2ccc(S(C)(=O)=O)cc2)cc1", 27.5),
]

Shift focus to the following entry.
The compound `Cc1nc(-c2ccccc2)sc1-c1ccnn1-c1ccc(S(N)(=O)=O)cc1` showed inhibition in vivo at 50 mg/kg equal to 54.8

* * *

# test.protocol: Inhibition of soybean 15-LOX using arachidonic acid as substrate by enzyme immunoassay
# Set-up: species or system Glycine max
Threshold 6 µM. IC50 below it: Y. IC50 at it or above: N.

Solved entries (count: 5):
# compound, label.value
measured = [
    ("Cc1nc(-c2ccccc2)sc1-c1ccnn1-c1ccc(S(=O)(=O)/N=C/N(C)C)cc1", "N"),
    ("Cc1nc(-c2ccccc2)sc1-c1cc(C(F)(F)F)nn1-c1ccc(S(C)(=O)=O)cc1", "Y"),
    ("Cc1nc(-c2ccccc2)sc1-c1ccnn1-c1ccc(S(N)(=O)=O)cc1", "N"),
    ("COc1ccc([C@@H]2CC(c3sc(-c4ccccc4)nc3C)=NN2c2ccc(S(C)(=O)=O)cc2)cc1", "Y"),
    ("C/C(=N\\Nc1ccc(S(C)(=O)=O)cc1)c1sc(-c2ccccc2)nc1C", "N"),
]

Problem: Check if IC50 falls below 6 µM for `Cc1nc(-c2ccccc2)sc1-c1cc(C(F)(F)F)nn1-c1ccc(S(N)(=O)=O)cc1` .
Solution: Y

Problem: Quick check: IC50 of Cc1ccc(Cl)c(Nc2ccccc2C(=O)O)c1Cl [MECLOFENAMATE SODIUM] under 6 µM?
Solution: Y

* * *

# Tested on: Rattus norvegicus
# test.protocol: Anti-inflammatory activity in Wistar albino rat assessed as inhibition of carrageenan-induced paw edema at 50 mg/kg, po measured after 4 hrs relative to control
# Assay type: functional
Items are presented alongside their recorded inhibition in vivo at 50 mg/kg.
Return type: number; implicit unit %.

// below: answered molecules
# item.smiles, unit.tag, inhibition in vivo at 50 mg/kg
measured = [
    ("Cc1nc(-c2ccccc2)sc1-c1ccnn1-c1ccc(S(C)(=O)=O)cc1", "%", 48.4),
    ("COc1ccc(/C=C/C(=O)c2sc(-c3ccccc3)nc2C)cc1", "%", 46.9),
    ("Cc1nc(-c2ccccc2)sc1-c1cc(C(F)(F)F)nn1-c1ccc(S(N)(=O)=O)cc1", "%", 57.8),
    ("COc1ccc([C@@H]2CC(c3sc(-c4ccccc4)nc3C)=NN2c2ccc(S(C)(=O)=O)cc2)cc1", "%", 28.1),
    ("Cc1nc(-c2ccccc2)sc1-c1ccnn1-c1ccc(S(=O)(=O)/N=C/N(C)C)cc1", "%", 51.6),
]

The molecule listed as `C/C(=N\Nc1ccc(S(N)(=O)=O)cc1)c1sc(-c2ccccc2)nc1C` has a reported inhibition in vivo at 50 mg/kg of 37.1

Measured inhibition in vivo at 50 mg/kg, `Cc1nc(-c2ccccc2)sc1-c1cc(C(F)(F)F)nn1-c1ccc(S(C)(=O)=O)cc1` : 51.6

Record summary for `C/C(=N\Nc1ccc(S(C)(=O)=O)cc1)c1sc(-c2ccccc2)nc1C` : reported inhibition in vivo at 50 mg/kg = 28.1

Measured inhibition in vivo at 50 mg/kg, `Cc1nc(-c2ccccc2)sc1-c1ccnn1-c1ccc(S(N)(=O)=O)cc1` : 54.7

Value of inhibition in vivo at 50 mg/kg reported for the molecule `COc1ccc([C@@H]2CC(c3sc(-c4ccccc4)nc3C)=NN2c2ccc(S(N)(=O)=O)cc2)cc1` is 42.2

The reported numbers originate from ChEMBL document CHEMBL3822360.
